- Experimental system: T1, murine GPC3-His protein (Sino Biological, Cat. No. 50989-M08B) (murine, UniProt Q8CFZ4 25-558)
- T1 construct: Bought protein; also called murine GPC3 protein; mouse GPC3-his protein; not shown: His tag
- T1 sequence (Q8CFZ4 25-558 limits assumed): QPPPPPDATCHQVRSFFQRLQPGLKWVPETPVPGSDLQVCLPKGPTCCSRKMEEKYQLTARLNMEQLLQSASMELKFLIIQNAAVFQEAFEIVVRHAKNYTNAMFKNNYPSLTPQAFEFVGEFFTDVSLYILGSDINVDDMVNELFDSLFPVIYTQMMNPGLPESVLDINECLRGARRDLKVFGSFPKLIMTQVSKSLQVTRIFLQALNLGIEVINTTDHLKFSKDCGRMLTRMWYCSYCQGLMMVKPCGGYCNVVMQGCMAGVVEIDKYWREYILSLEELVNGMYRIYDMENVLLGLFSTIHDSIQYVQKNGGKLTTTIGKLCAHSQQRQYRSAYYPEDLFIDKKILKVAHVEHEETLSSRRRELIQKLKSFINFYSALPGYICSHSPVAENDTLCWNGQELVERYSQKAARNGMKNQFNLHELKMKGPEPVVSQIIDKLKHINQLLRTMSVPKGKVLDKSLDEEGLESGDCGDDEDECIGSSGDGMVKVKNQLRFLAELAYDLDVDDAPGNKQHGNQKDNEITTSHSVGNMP
- Test protocol: ELISA, coated antigen
Property name: binding result

hAb007LH1L1c (antibody, human IgG1, V domains shown, Humanized F3.81.19) VH: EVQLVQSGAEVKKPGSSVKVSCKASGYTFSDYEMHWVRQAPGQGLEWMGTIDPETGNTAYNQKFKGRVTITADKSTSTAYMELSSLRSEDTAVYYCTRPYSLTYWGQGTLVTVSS VL: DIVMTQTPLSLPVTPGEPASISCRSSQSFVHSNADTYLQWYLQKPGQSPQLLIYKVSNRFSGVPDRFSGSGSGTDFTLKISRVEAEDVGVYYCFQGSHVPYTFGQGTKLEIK = no binding
hAb006LH2L1b (antibody, human IgG1, V domains shown, Humanized F3.38.7) VH: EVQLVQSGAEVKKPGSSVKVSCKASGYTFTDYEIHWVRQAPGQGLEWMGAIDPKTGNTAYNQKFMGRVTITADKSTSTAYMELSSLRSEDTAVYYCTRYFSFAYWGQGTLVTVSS VL: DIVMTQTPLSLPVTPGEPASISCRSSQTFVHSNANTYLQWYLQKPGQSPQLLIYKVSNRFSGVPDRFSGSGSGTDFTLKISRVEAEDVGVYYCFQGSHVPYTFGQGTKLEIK = no binding
